- System Tested: Delta-type opioid receptor (Rattus norvegicus)
- Sequence (P33533 whole entry): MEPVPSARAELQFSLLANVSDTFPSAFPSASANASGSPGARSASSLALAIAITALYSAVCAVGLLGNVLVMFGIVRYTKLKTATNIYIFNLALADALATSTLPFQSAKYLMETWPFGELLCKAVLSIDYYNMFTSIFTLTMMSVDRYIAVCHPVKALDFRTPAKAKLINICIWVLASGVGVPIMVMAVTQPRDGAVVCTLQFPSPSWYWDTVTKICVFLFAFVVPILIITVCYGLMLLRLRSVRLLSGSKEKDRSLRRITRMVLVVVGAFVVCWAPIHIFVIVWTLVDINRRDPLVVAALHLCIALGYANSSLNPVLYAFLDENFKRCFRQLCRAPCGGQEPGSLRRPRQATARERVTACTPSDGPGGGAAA
- Measurement Notes: Binding affinity on HEK293 cells transiently transfected with plasmids encoding the rat Opioid receptor delta 1
Answer each item with its documented Ki.
Record the result as a number with its unit.

get_value(item= N#CN=C(N)Nc1ccc2[nH]c3c(c2c1)C[C@@]1(O)C2Cc4ccc(O)c5c4[C@@]1(CCN2CC1CC1)[C@H]3O5 , readout=Ki) returns 9.46 nM

get_value(item= N=C(N)NCCc1ccc2[nH]c3c(c2c1)C[C@@]1(O)[C@H]2Cc4ccc(O)c5c4[C@@]1(CCN2CC1CC1)[C@H]3O5 , readout=Ki) returns 10.7 nM

get_value(item= N=C(N)c1ccc2[nH]c3c(c2c1)C[C@@]1(O)C2Cc4ccc(O)c5c4[C@@]1(CCN2CC1CC1)[C@H]3O5 , readout=Ki) returns 112 nM

get_value(item= N=C(N)Cc1ccc2[nH]c3c(c2c1)C[C@@]1(O)C2Cc4ccc(O)c5c4[C@@]1(CCN2CC1CC1)[C@H]3O5 , readout=Ki) returns 33 nM
